Test system: MS2 coat protein
assay.info: apparent KD of MS2 coat protein; designed switch direction (-1 OFF switch, 1 ON switch): -1; higher = weaker reporter binding
conditions.used: input ligand: microRNA oligo, concentration not stated
Consider the reported apparent KD of MS2 coat protein of an entry and match it to a band in one: < 40 nM; two: ≥ 40 nM and < 100 nM; three: ≥ 100 nM

UACAUGAGGAUCACCCAUGUUUUGUCGUGUAUGGUAUUUAUCUAGGAUAUCAAGUUAGUUAUUUAUGAGAAGGAGAAUAUUAAU [JMF's solution 29] (Eterna round: R96, puzzle: Exclusion NG 3)
one
AGAUAGUGCUGAGGAUAUCUUAAUAGAAAGAAUAGAGAAGGCGGACAUGAGGAUCACCCAUGUGAGGUCUUGAGACUACAUGGU [Prohibition 36 - Jieux - Exclusion NG 1] (Eterna round: R96, puzzle: Exclusion NG 1)
two
CGGUGUAAGUCAGGAUAUGAGCGCAACUGACGAUCAGAAGGGACACAUGAGGAUCACCCAUGUGAUUUCUCAAUAUUAUACAUC [Prohibition 90 - Jieux - Exclusion NG 1] (Eterna round: R96, puzzle: Exclusion NG 1)
one
UGCUACAUGAGGAUCACCCAUGUUAUUUGGGAUUUUUUAGGACAGGAUAUGAUUGUAUUGUUUUUUCAGAAGGGUCAUUACUUU [JR_ExcNG3_Sub013] (Eterna round: R96, puzzle: Exclusion NG 3)
three
GGCAUCAUCUGGUCCUGAUACAUGAGGAUCACCCAUGUUCUACUGUAGGUCGUAAGCAGCUUACCCUCUUAGGCACA [JR_Sensorv2_tov_Sub1249] (Eterna round: R96, puzzle: Sensor v2, turn-off variant)
three
GAAAAGAAGCUAGGAUAUGCAUGACGGAUACCCGUGAGCACGUAGCAGACAUGAGGAUCACCCAUGUAGAAGGAGCGAAGAAAU [Veteriat] (Eterna round: R96, puzzle: Exclusion NG 2)
two

Hi there! Could you help me figure out the category for GCCUCACAUGAGGAUCACCCAUGUCAGGAUAUAGGAGACGGCAGAAAUCCUGCCAUCGCUAGAAGGGACUGGCA [Tirebi] (Eterna round: R96, puzzle: Exclusion 1) please?
two

Hi there! Could you help me figure out the category for AGUACUAACACGUGUGUGUUAGUACAAUAAGCUUGUGAAACAUGAGGAUCACCCAUGUCCUCAUAAGCUCGUCUUAU [salish99_TOv2_r3_074] (Eterna round: R96, puzzle: Sensor v3, turn-off variant 2) please?
three

Hi there! Could you help me figure out the category for CUUAGACAUGAGGAUCACCCAUGUGAGGAUAUGAUGCGAAUAAAGAAAGAAGAAAGCAUCAGAAGGCACAUAUG (Eterna round: R96, puzzle: Exclusion 1) please?
two

Hi there! Could you help me figure out the category for ACAUGAGGAUCACCCAUGUCCGGCUGGUCUGUUUCGGUUGUCGAGGAUAUAGUUCGGUGUUCGCGCUAGAAGGUGGGAGCUGGG [Aenatbe mod 56] (Eterna round: R96, puzzle: Exclusion NG 3) please?
three

Hi there! Could you help me figure out the category for ACAUGAGGAUCACCCAUGUCCGGCUGGUCUGUUUCGGUUGUCGAGGAUAUAGUUCGGUGUUCGCGCUAGAAGGUGGGAGCUGGC [Aenatbe mod 57] (Eterna round: R96, puzzle: Exclusion NG 3) please?
three

Hi there! Could you help me figure out the category for UCAAGUAUGUAGGAUAUCGAUGUCCUUGGACAUCGAGAAGGACGUACAUGAGGAUCACCCAUGUAACUUGCAUG [Exclusion 6 - B - 10:e] (Eterna round: R96, puzzle: Exclusion 6) please?
three

Hi there! Could you help me figure out the category for GGAUAAAACUGAGGAUAUGCGUAUCGCUAGCGAGCAGAAGGCAGACAUGAGGAUCACCCAUGUGAGUUCUCGAUAAGAAACACG [Prohibition 59 - Jieux - Exclusion NG 1] (Eterna round: R96, puzzle: Exclusion NG 1) please?
two

Hi there! Could you help me figure out the category for UUGCAGUCGUCAGGAUAUAGUAUUACGGCCUUUCAUUUCUUCAUACAUGAGGAUCACCCAUGUCGCUAGAAGGGCUUCUCGCUU [salish99_ExNG2_r04_109] (Eterna round: R96, puzzle: Exclusion NG 2) please?
one

Hi there! Could you help me figure out the category for GCUUUUGGGCAAGGAUAUCCUGCGCGGUUCUGGUUCGUGUCUGUCACAUGAGGAUCACCCAUGUGGGAGAAGGUGCCUGUGGUG [Design 71] (Eterna round: R96, puzzle: Exclusion NG 2) please?
one
